# Test system: fungal spores
# assayProtocol: Fungicidal activity according to GOST 30028.4-2006, resistance of treated materials to fungal spores
# Assay type: cell-based
# experimentalConditions: Polyvinyl chloride emulsion, additive content 5 % wt.
# Tolerance time values compiled below
resultType: Tolerance time (days)

[
  {
    "compound": "C=CC(=O)[O][Zn][O]C(=O)CC(=O)O [Zinc acrylate-malonate]",
    "unitsSymbol": "days",
    "dataValue": 18
  },
  {
    "compound": "C=CC(=O)[O][Cu][O]C(=O)C(O)C(O)C(=O)O (stereo not shown) [Copper acrylate-tartrate]",
    "unitsSymbol": "days",
    "dataValue": 17
  },
  {
    "compound": "C=C(C)C(=O)O.O=C([O-])CC(O)C(=O)[O-].[Zn+2] (stereo not shown) [Zinc methacrylate-malate]",
    "unitsSymbol": "days",
    "dataValue": 9
  },
  {
    "compound": "C=CC(=O)[O][Zn][O]C(=O)C(O)(CC(=O)O)CC(=O)O [Zinc acrylate-citrate]",
    "unitsSymbol": "days",
    "dataValue": 17
  }
]
